- System under test: recombinant human mPGES-1 (Homo sapiens)
- Construct: made in house; host or cells: Rosetta E. coli (microsomal/membrane fraction)
- Sequence (O14684 1-152): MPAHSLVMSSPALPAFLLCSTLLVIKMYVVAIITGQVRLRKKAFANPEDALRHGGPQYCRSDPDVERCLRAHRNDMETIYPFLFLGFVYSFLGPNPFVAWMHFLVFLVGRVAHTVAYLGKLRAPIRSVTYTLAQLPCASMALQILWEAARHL
- Procedure text: mPGES-1 inhibition test (microsomes, HTRF detection of PGE2)
- Format: biochemical
Measured parameter: inhibition at 10 µM (%)

- Molecule: "O=C(NCc1ncccc1C(F)(F)F)c1cc2[nH]c(Nc3c(Cl)cccc3Cl)nc2cn1 [Example 509]"
  Unit: "%"
  Measured number: 97
- Molecule: "O=C(N[C@H]1CC[C@H](C(F)(F)F)CC1)c1cc2[nH]c(Nc3c(Cl)cccc3Cl)nc2cn1 [Example 481]"
  Unit: "%"
  Measured number: 98
- Molecule: "O=C(Nc1cc(OC2CCCC2)ccn1)c1cc2[nH]c(Nc3c(Cl)cccc3Cl)nc2cn1 [Example 440]"
  Unit: "%"
  Measured number: 100
- Molecule: "Cn1c(Nc2c(Cl)cccc2Cl)nc2cc(C(=O)NCc3ncccc3C(F)(F)F)ncc21 [Example 528]"
  Unit: "%"
  Measured number: 96
- Molecule: "O=C(Nc1cc(C(F)(F)F)ccn1)c1cc2[nH]c(Nc3c(Cl)cncc3Cl)nc2cn1 [Example 366]"
  Unit: "%"
  Measured number: 100
- Molecule: "Cn1c(Nc2c(F)cccc2Cl)nc2cc(C(=O)NCc3ncccc3C(F)(F)F)ncc21 [Example 504]"
  Unit: "%"
  Measured number: 100
- Molecule: "Cc1cnc(NC(=O)c2cc3[nH]c(Nc4c(Cl)cccc4Cl)nc3cn2)cc1Cl [Example 427]"
  Unit: "%"
  Measured number: 98
- Molecule: "O=C(Nc1cc(OC2CCOC2)ccn1)c1cc2[nH]c(Nc3c(Cl)cccc3Cl)nc2cn1 (centres unmarked) [Example 495]"
  Unit: "%"
  Measured number: 86
- Molecule: "Cn1c(Nc2c(Cl)cncc2Cl)nc2cc(C(=O)NC3CCC(C)(C)CC3)ncc21 [Example 478]"
  Unit: "%"
  Measured number: 100
- Molecule: "O=C(Nc1cc(C(F)(F)F)ccn1)c1cc2[nH]c(Nc3c(F)cccc3Cl)nc2cn1 [Example 729]"
  Unit: "%"
  Measured number: 100
- Molecule: "O=C(Nc1ccc(Br)cc1)c1cc2[nH]c(Nc3c(Cl)cccc3Cl)nc2cn1 [Example 722]"
  Unit: "%"
  Measured number: 100
